target: UniProt K9N7C7
Sequence (K9N7C7 3248-3553 limits assumed): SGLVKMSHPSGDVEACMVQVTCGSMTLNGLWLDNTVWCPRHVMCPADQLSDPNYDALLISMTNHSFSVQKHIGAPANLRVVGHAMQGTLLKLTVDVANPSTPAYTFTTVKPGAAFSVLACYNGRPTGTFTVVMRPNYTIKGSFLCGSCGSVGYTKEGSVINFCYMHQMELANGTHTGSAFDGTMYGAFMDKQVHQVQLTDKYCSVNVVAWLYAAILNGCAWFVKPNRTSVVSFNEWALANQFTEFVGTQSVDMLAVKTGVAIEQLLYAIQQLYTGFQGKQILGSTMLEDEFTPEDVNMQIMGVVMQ
OUTCOME MEASURE: pIC50
By convention, pIC50 is the negative base-10 log of a molar concentration.

Can you look up the measured pIC50 of "CC(C)(C)OC(=O)Nc1cccn([C@@H](CC2CC2)C(=O)N[C@@H](C[C@@H]2CCNC2=O)C(=O)C(=O)NCc2ccccc2)c1=O" for me? 6.24

---

assay: pharmacokinetic study 2 mg/kg i.v.; type: in vivo; settings: in vivo, iv; 2 mg/kg i.v.
OUTCOME MEASURE: AUC(0-t) (ng·h/mL)
Express your answer in ng·h/mL, writing the number without its unit.

# MOLECULE, AUC(0-t) (ng·h/mL)
records = [
    ("O=C(/C=C/c1ccccc1)N[C@@H](CC1CCCCC1)C(=O)N[C@@H](C[C@@H]1CCNC1=O)C(=O)C(=O)NCc1ccccc1 [DZL08, reference compound]", 135),
]

Can you look up the measured AUC(0-t) of "CC(C)(C)OC(=O)Nc1cccn([C@@H](CC2CCCCC2)C(=O)N[C@@H](C[C@@H]2CCNC2=O)C(=O)C(=O)NC2CC2)c1=O" for me? 193
